B1: STEAP1 (parent)
chain: LWKMKPRRNLEEDDYLHKDTGETS

variants of: B1; assay: protein stability index of a GFP-peptide fusion (GPS, HEK-293T) (PSI 1-6); higher = more stable; conditions: c terminus: a fixed tail appended;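 note: lentivirally expressed fusions sorted by FACS into six bins by GFP to DsRed ratio, PSI derived from sequencing read proportions per bin multiplied by bin number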
Please enter y where protein stability index is greater than or equal to 4, and n where it is lower.

Solved entries:
# Macromolecule sequence, Category label
records = [
    ("LWKMKPRRNLEEDDYLHKTTGETS", "n"),
    ("LWKMKPRRNLETDDYLHKDTGETS", "y"),
    ("LWHMKPRRNLEEDDYLHKDTGETS", "y"),
    ("WWKMKPRRNLEEDDYLHKDTGETS", "y"),
]

Now for a further variant.
Asked: Form field: protein stability index at least 4? Entry: "LWKMKPRRNLEEEDYLHKDTGETS"
Given back: y
